Target: T1, human GCP-2 (human, UniProt P80162 38-114, limits assumed)
T1 sequence (looked up): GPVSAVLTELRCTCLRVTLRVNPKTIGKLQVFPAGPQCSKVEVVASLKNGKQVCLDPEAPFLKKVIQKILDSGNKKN
Test: cell-based or functional assay
This section presents binders with their documented FLIPR IC50 values.
Response body: numeric value in µg/mL, unit text excluded.

[[record]]
binder = "2X810.3 (antibody, IgG1, V domains shown) VH: QIQLQQSGPEVVKPGASVKISCKASGYIFTDNYIDWVQQRPGQGLEWIGWIFPGSGNTKYNEKFKGKATLTVDTFSSTAYMQLSSLTSEDTAVYFCAREIDYDYDGFFDVWGAGTTVTVSS VL: DIVMTPSHTFMSTSVGDRVIITSKASQDVGSAVAWYQQKPGQSPTLLIYWASTRHTGVPDRFTGSGSGTDFTLTISNLQSEDLADYFCQQYSTYPLTFGAGTKLELK"
units_text = "µg/mL"
measured_result = 24.6


Now for the binder whose FLIPR IC50 we want.
Req: Specify measured FLIPR IC50 for 1A1.4C6 (antibody, IgG1, V domains shown) VH: EVQLQQSGPELVKPGASVKISCKASGYTFIDYYMNWVKQSQGKSLEWIGDVNPDDGDTTYNQQFKDKATLTVDKSSSTAYMELRSLTSEDSAVYYCARDDRTSGYFDVWGTGTTVTVSS VL: DIQMTQSTSSLSASLGDRVTISCRASQDIRNYLNWFQQKPDGTVKLLIYYTSIVHSRVPSRFSGSGSGTDYSLTINNLDQEDIATYFCQQANTLPWTFGGGTKLETK .
Resp: 11.2
